# EXPERIMENTAL_PROTOCOL: Cytotoxicity against mock-infected human MT4 cells assessed as reduction in cell viability after 5 days by MTT assay
# Type: toxicity, cell-based
READOUT_NAME: CC50 at 120 h (µM)
Give the value, in units of µM, as a plain number.

Example entries and their recorded answers appear below.
In [3]: df
Out[3]:
                           molecular_string   readout_name  unit_abbrev  reported
0  Cc1cc(C#N)cc(C)c1Oc1cc(Cl)nc(NC2CCN(CC3CC3)CC2)c1  CC50 at 120 h           µM       9.6
1  Cc1cc(C#N)cc(C)c1Oc1cc(Cl)nc(NC2CCN(Cc3ccccc3)CC2)c1  CC50 at 120 h           µM       4.3
2  Cc1cc(C#N)cc(C)c1Oc1cc(Cl)nc(NC2CCN(Cc3ccc(S(C)(=O)=O)cc3)CC2)c1  CC50 at 120 h           µM       1.5
3  Cc1cc(C)c(Oc2cc(Nc3ccc(C#N)cc3)nc(OCCCN3CCOCC3)c2)c(C)c1  CC50 at 120 h           µM      18.8
4  COc1cc(Oc2c(C)cc(C#N)cc2C)cc(NC2CCN(Cc3ccncc3)CC2)n1  CC50 at 120 h           µM      20.8
5  COc1cc(Oc2c(C)cc(C#N)cc2C)cc(NC2CCN(Cc3ccccc3)CC2)n1  CC50 at 120 h           µM       3.5
6  Cc1cc(C)c(Oc2cc(Cl)nc(NC3CCN(CC4CC4)CC3)c2)c(C)c1  CC50 at 120 h           µM       5.2
7  COc1cc(Oc2c(C)cc(C#N)cc2C)cc(NC2CCN(CC3CC3)CC2)n1  CC50 at 120 h           µM       8.6

Pending molecule:
Q) Give its CC50 at 120 h value. Item: Cc1cc(C)c(Oc2cc(Cl)nc(NC3CCN(Cc4ccc(S(C)(=O)=O)cc4)CC3)c2)c(C)c1
A) 1.2

Values were extracted from ChEMBL document CHEMBL3860023.
